- assay.system: SMYD3 (Homo sapiens (Human), UniProt Q9H7B4)
- Sequence (Q9H7B4 whole entry): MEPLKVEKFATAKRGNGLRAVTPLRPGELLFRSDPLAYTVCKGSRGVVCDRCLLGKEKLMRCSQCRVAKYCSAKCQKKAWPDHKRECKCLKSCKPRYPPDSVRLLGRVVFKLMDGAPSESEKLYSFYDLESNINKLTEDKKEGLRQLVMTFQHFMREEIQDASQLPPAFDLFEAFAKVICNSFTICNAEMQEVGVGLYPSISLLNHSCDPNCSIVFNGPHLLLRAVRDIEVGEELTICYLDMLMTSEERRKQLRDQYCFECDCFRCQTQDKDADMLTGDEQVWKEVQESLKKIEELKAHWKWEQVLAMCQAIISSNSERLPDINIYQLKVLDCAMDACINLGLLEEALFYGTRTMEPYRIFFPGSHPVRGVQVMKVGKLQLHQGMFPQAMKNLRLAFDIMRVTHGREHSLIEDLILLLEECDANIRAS
- assay.comment: SMYD3 cell assay (Trimethyl-MEKK2 In-Cell Western in 293T/17 cells)
- Assay type: cell-based
- test.context: 293T/17 cells; read-out: SMYD3 Cell IC50 (μM)*
property.name: IC50 (µM)
// note: answer is a bare numeric in µM

Record for O=C(N[C@H]1C[C@H]2CC[C@@H](C1)N2S(=O)(=O)CCN1CCOCC1)c1cc(C2CC2)on1 [compound 441] under target or system SMYD3 (Homo sapiens (Human), UniProt Q9H7B4): IC50 reported as 3.67

// below: IC50 requested for another molecule
Record for C[C@@H]1C[C@H](NC(=O)c2cc(C3CC3)on2)CCN1C(=O)c1ccc(C2(N)CCC2)cc1 [compound 479] under target or system SMYD3 (Homo sapiens (Human), UniProt Q9H7B4): IC50 reported as 2.03

----------
- assay.system: SMYD3 (Homo sapiens (Human))
- assay.comment: SMYD3 cell assay (Trimethyl-MEKK2 In-Cell Western in 293T/17 cells)
- Format: cell-based
- test.context: average of n = 1 to n = 50; read-out: SMYD3 Cell IC50
property.name: pIC50
// scale note: pIC50 = -log10(conc_M); give the bare number

Record for O=C(N[C@H]1C[C@H]2CC[C@@H](C1)N2S(=O)(=O)N1CCNC(c2ccccc2)C1)c1cc(C2CC2)on1 (some centres unmarked) under target or system SMYD3 (Homo sapiens (Human)): pIC50 reported as 5.82

Record for CNC/C=C/S(=O)(=O)N1CCC(NC(=O)c2cc(C3CC3)on2)CC1 under target or system SMYD3 (Homo sapiens (Human)): pIC50 reported as 5.86

Record for CN(C1CCNCC1)S(=O)(=O)N1[C@@H]2CCC[C@H]1C[C@H](NC(=O)c1cc(C3CC3)on1)C2 under target or system SMYD3 (Homo sapiens (Human)): pIC50 reported as 5.77

Continuing:
Record for CN1CCC(N(C)S(=O)(=O)N2[C@@H]3CCC[C@@H]2CC(NC(=O)c2cc(C4CC4)on2)C3)CC1 (some centres unmarked) under target or system SMYD3 (Homo sapiens (Human)): pIC50 reported as 5.72

Record for CN1CCC(N(C)S(=O)(=O)N2[C@@H]3CCC[C@H]2C[C@H](NC(=O)c2cc(C4CC4)on2)C3)CC1 under target or system SMYD3 (Homo sapiens (Human)): pIC50 reported as 5.79

Record for CN(CCc1ccccc1)CCS(=O)(=O)N1[C@@H]2CC[C@H]1C[C@@H](NC(=O)c1cc(C3CC3)on1)C2 under target or system SMYD3 (Homo sapiens (Human)): pIC50 reported as 5.50

----------
- assay.system: SMYD3 (Homo sapiens (Human), UniProt Q9H7B4)
- assay.comment: SMYD3 cell assay (Trimethyl-MEKK2 In-Cell Western in 293T/17 cells)
- Format: cell-based
- test.context: read-out: SMYD3 Cell IC50*
pIC50: −log10 of the molar value.
Label rule, in plain words: pIC50 of 7 and up is Criterion met, under 7 is Criterion not met.

Example results:
Please tell me: is the compound O=C(N[C@H]1C[C@H]2CC[C@@H](C1)N2S(=O)(=O)c1ccc(CNCCO)cc1)c1cc(C2CC2)on1 at or over 7 in terms of pIC50? Criterion not met

Please tell me: is the compound CCc1cc(C(=O)N[C@H]2C[C@H]3CC[C@@H](C2)N3S(=O)(=O)[C@H]2CC[C@H](NCCO)CC2)no1 at or over 7 in terms of pIC50? Criterion met

Please tell me: is the compound C[C@H]1CN(S(=O)(=O)[C@H]2CC[C@@H](N(C)C)CC2)CC[C@H]1NC(=O)c1cc(C2CC2)on1 at or over 7 in terms of pIC50? Criterion not met

Please tell me: is the compound C[C@H]1C[C@@H](NC(=O)c2cc(C3CC3)on2)CCN1S(=O)(=O)CC[C@H]1CCN(C)C1 at or over 7 in terms of pIC50? Criterion met

Please tell me: is the compound CN(C)C1CCN(S(=O)(=O)N2[C@@H]3CC[C@H]2C[C@@H](NC(=O)c2cc(C4CC4)on2)C3)CC1 at or over 7 in terms of pIC50? Criterion met

Continuing:
Please tell me: is the compound CN(CCc1ccccc1)C1CCN(S(=O)(=O)N2[C@@H]3CC[C@H]2C[C@@H](NC(=O)c2cc(C4CC4)on2)C3)CC1 at or over 7 in terms of pIC50? Criterion not met

Please tell me: is the compound COCCCN(C)C1CCN(S(=O)(=O)N2[C@@H]3CC[C@H]2C[C@@H](NC(=O)c2cc(C4CC4)on2)C3)CC1 at or over 7 in terms of pIC50? Criterion not met

----------
- assay.system: UniProt:Q9H7B4
- assay.comment: SMYD3 biochemical assay (SPA, 3H-SAM methylation of MEKK2 protein substrate)
- test.context: read-out: SMYD3 Biochem IC50*
pIC50: −log10 of the molar value.
Label rule, in plain words: pIC50 of 8 and up is criterion met, under 8 is criterion not met.

Example results:
Please tell me: is the compound CCc1cc(C(=O)N[C@H]2C[C@H]3CC[C@@H](C2)N3S(=O)(=O)[C@H]2CC[C@@H](NCCO)CC2)no1 [compound 833] at or over 8 in terms of pIC50? criterion met

Please tell me: is the compound O=C(N[C@H]1C[C@H]2CC[C@@H](C1)N2S(=O)(=O)NC1CCN(Cc2ccccc2)CC1)c1cc(C2CC2)on1 [compound 948] at or over 8 in terms of pIC50? criterion not met

Please look at the following compound next.
Please tell me: is the compound O=C(N[C@H]1C[C@H]2CC[C@@H](C1)N2S(=O)(=O)N1CC2CC1CN2)c1cc(C2CC2)on1 [compound 840] at or over 8 in terms of pIC50? criterion met

----------
- assay.system: SMYD3 (Homo sapiens (Human), UniProt Q9H7B4)
- assay.comment: SMYD3 biochemical assay (SPA, 3H-SAM methylation of MEKK2 protein substrate)
- test.context: IC50 values are an average of n = 1 to n = 50; read-out: SMYD3 Biochem IC50*
Each item that follows carries a reported IC50.
// note: answer is a bare numeric in nM

get_value(item= COCCNCc1ccc(S(=O)(=O)N2[C@@H]3CC[C@H]2C[C@@H](NC(=O)c2cc(C4CC4)on2)C3)cc1 , readout=IC50) returns 156

----------
- assay.system: SMYD3 (Homo sapiens (Human))
- assay.comment: SMYD3 cell assay (Trimethyl-MEKK2 In-Cell Western in 293T/17 cells)
- Type: cell-based
- test.context: 293T/17 cells; read-out: SMYD3 Cell IC50 (μM)*
Each item that follows carries a reported log10(IC50).
log10 IC50, µM

The following molecules have reported results that may help.
get_value(item= O=C(N[C@@H]1C[C@H]2CC[C@@H](C1)N2S(=O)(=O)c1ccc2[nH]c(=O)oc2c1)c1cc(C2CC2)on1 [compound 404] , readout=log10(IC50)) returns 0.47

get_value(item= C[C@@H]1C[C@H](NC(=O)c2cc(C3CC3)on2)CCN1C(=O)c1ccc(C(C)(C)N)cc1 [compound 368] , readout=log10(IC50)) returns 0.02

get_value(item= C[C@@H]1C[C@H](NC(=O)c2cc(C3CC3)on2)CCN1S(=O)(=O)c1ccc(NCCN2CCOCC2)nc1 [compound 459] , readout=log10(IC50)) returns 0.66

// below: log10(IC50) requested for another molecule
get_value(item= C[C@@H]1CN(C(=O)[C@H]2CC[C@H](N)CC2)[C@H](C)C[C@@H]1NC(=O)c1cc(C2CC2)on1 [Cpd. No. 420] , readout=log10(IC50)) returns -0.69

----------
- assay.system: SMYD3 (Homo sapiens (Human), UniProt Q9H7B4)
- assay.comment: SMYD3 biochemical assay (SPA, 3H-SAM methylation of MEKK2 protein substrate)
- test.context: read-out: SMYD3 Biochem IC50*
Each item that follows carries a reported log10 IC50.
log10 IC50, nM

get_value(item= C[C@H]1C[C@@H](NC(=O)c2cc(C3CC3)on2)CCN1S(=O)(=O)N1CCC(N(C)CCO)CC1 [compound 780] , readout=log10 IC50) returns 0.08

Continuing:
get_value(item= CCCN1CCC(CS(=O)(=O)N2[C@@H]3CC[C@H]2C[C@@H](NC(=O)c2cc(C4CC4)on2)C3)CC1 [compound 781] , readout=log10 IC50) returns 0.09

get_value(item= O=C(N[C@H]1C[C@H]2CC[C@@H](C1)N2S(=O)(=O)C[C@@H]1CCCN1)c1cc(C2CC2)on1 [compound 930] , readout=log10 IC50) returns 1.57

get_value(item= O=C(N[C@H]1C[C@H]2CC[C@@H](C1)N2S(=O)(=O)N(Cc1ccccc1)C1CCNCC1)c1cc(C2CC2)on1 [compound 945] , readout=log10 IC50) returns 1.70

get_value(item= O=C(N[C@H]1C[C@H]2CC[C@@H](C1)N2S(=O)(=O)C[C@@H]1CCCCN1)c1cc(C2CC2)on1 [compound 919] , readout=log10 IC50) returns 1.40

get_value(item= C[C@H]1C[C@@H](NC(=O)c2cc(C3CC3)on2)CCN1S(=O)(=O)C[C@@H]1CC[C@@H](N)C1 [compound 784] , readout=log10 IC50) returns 0.11

get_value(item= COCCN[C@H]1CC[C@@H](S(=O)(=O)N2[C@@H]3CC[C@H]2C[C@@H](NC(=O)c2cc(C4CC4)on2)C3)CC1 [compound 826] , readout=log10 IC50) returns 0.59
